meta.source: patent US6677368B2

biological target: FLK-1 (Mus musculus, UniProt P35918); construct: GST-Flklcd purified from sf9 recombinant baculovirus transfomnation (SUGEN, Inc.); experiment: GST-FLK-1 bioassay (tyrosine kinase activity on poly(glu-tyr)); conditions: GST-Flk1, poly(glu-tyr) substrate, 0.5 μM ATP
Sequence (P35918 784-1345 limits assumed): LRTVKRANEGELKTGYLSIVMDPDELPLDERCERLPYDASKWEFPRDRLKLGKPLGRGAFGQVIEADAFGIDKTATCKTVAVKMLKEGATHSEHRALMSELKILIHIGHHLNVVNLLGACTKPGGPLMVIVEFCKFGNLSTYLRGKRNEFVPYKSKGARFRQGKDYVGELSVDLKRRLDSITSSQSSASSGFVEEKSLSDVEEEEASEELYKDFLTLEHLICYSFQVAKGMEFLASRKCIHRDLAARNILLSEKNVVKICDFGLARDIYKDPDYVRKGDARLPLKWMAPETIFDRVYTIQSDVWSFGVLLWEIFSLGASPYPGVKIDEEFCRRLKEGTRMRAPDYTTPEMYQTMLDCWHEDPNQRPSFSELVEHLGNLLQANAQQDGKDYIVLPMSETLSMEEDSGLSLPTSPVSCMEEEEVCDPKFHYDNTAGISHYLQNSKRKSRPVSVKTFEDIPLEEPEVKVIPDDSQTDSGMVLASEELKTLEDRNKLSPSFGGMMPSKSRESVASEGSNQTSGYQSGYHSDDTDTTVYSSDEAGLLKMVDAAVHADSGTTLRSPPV
pIC50: −log10 of the molar value.
pIC50 by entry:
Endpoint Label: pIC50

* Cc1cc(C(=O)N2CC[C@H](N(C)C)C2)c(/C=C2\C(=O)Nc3cccc(-c4cccc(Cl)c4)c32)[nH]1 [Example 32] | 7.29
* CCOC(=O)c1c(C)[nH]c(/C=C2\C(=O)Nc3cccc(-c4cccc(F)c4)c32)c1CCCN1CCN(C)CC1 [Example 18] | 6.38
* Cc1[nH]c(/C=C2\C(=O)Nc3cccc(-c4ccc(Br)cc4)c32)c(C)c1C(=O)NCCN(C(C)C)C(C)C [Example 60] | 7.74
* COc1ccc(-c2cccc3c2/C(=C/c2[nH]c(C)cc2C(=O)NCCN2CCCC2)C(=O)N3)cc1 [Example 41] | 7.10
* Cc1cc(C(=O)N2CC[C@@H](N(C)C)C2)c(/C=C2\C(=O)Nc3cccc(-c4ccc(Cl)cc4)c32)[nH]1 [Example 25] | 6.74
* Cc1cc(C(=O)NCCN2CCCC2)c(/C=C2\C(=O)Nc3cccc(-c4ccc(F)c(Cl)c4)c32)[nH]1 [Example 119] | 6.74
* Cc1[nH]c(/C=C2\C(=O)Nc3cccc(-c4ccc(F)cc4)c32)c(C)c1C(=O)N1CCN(C)CC1 [Example 4] | 7.13
* Cc1[nH]c(/C=C2\C(=O)Nc3cccc(-c4ccc(Br)cc4)c32)c(C)c1C(=O)N1C[C@@H](C)N[C@@H](C)C1 [Example 57] | 7.54
* Cc1cc(C(=O)NCCN2CCCC2)c(/C=C2\C(=O)Nc3cccc(-c4ccc(Br)cc4)c32)[nH]1 [Example 58] | 7.27
* COc1cccc(-c2cccc3c2/C(=C/c2[nH]c(C)c(C(=O)NCCn4ccnn4)c2C)C(=O)N3)c1 [Example 48] | 7.92
* Cc1[nH]c(/C=C2\C(=O)Nc3cccc(-c4ccc(F)cc4)c32)c(C)c1C(=O)NCCN1CCCC1 [Example 6] | 7.68
* Cc1[nH]c(/C=C2\C(=O)Nc3cccc(-c4ccc(Cl)cc4)c32)c(C)c1C(=O)NCCN1CCCC1 [Example 22] | 7.80
* Cc1[nH]c(/C=C2\C(=O)Nc3cccc(-c4cccc(C(F)(F)F)c4)c32)c(C)c1C(=O)N1CCN(C)CC1 [Example 104] | 7.18
* Cc1cc(C(=O)N2C[C@@H](C)N[C@@H](C)C2)c(/C=C2\C(=O)Nc3cccc(-c4cccc(Cl)c4)c32)[nH]1 [Example 35] | 7.04
* CCN(CC)CCNC(=O)c1c(C)[nH]c(/C=C2\C(=O)Nc3cccc(-c4cccc(F)c4)c32)c1C [Example 13] | 7.89
* Cc1cc(C(=O)N2C[C@@H](C)N[C@@H](C)C2)c(/C=C2\C(=O)Nc3cccc(-c4ccc(Cl)cc4)c32)[nH]1 [Example 27] | 6.77
* Cc1[nH]c(/C=C2\C(=O)Nc3cccc(-c4cccc(F)c4)c32)c(C)c1C(=O)NCCn1ccnn1 [Example 15] | 7.49
* CCN(CC)CCNC(=O)c1c(C)[nH]c(/C=C2\C(=O)Nc3cccc(-c4cccc(Br)c4)c32)c1C [Example 63] | 7.37
* COc1cccc(-c2cccc3c2/C(=C/c2[nH]c(C)c(C(=O)NCCN(C(C)C)C(C)C)c2C)C(=O)N3)c1 [Example 52] | 8.30
* CCN(CC)CCNC(=O)c1c(C)[nH]c(/C=C2\C(=O)Nc3cccc(-c4ccc(OC(F)(F)F)cc4)c32)c1C [Example 140] | 7.12
* CCN(CC)CCNC(=O)c1c(C)[nH]c(/C=C2\C(=O)Nc3cccc(-c4ccccc4)c32)c1C [Example 3] | 8.05
* CCN(CC)CCNC(=O)c1c(C)[nH]c(/C=C2\C(=O)Nc3cccc(-c4cccc(Cl)c4)c32)c1C [Example 29] | 7.39
* Cc1[nH]c(/C=C2\C(=O)Nc3cccc(-c4ccc(Br)cc4)c32)c(C)c1C(=O)N1CCN(C)CC1 [Example 53] | 7.68
* CCN(CC)CCNC(=O)c1c[nH]c(/C=C2\C(=O)Nc3cccc(-c4ccc(Br)cc4)c32)c1C [Example 61] | 8.22
* CCN(CC)CCNC(=O)c1c(C)[nH]c(/C=C2\C(=O)Nc3cccc(-c4cccc(OC)c4)c32)c1C [Example 46] | 8.05
* Cc1cc(C(=O)N2CC[C@H](N(C)C)C2)c(/C=C2\C(=O)Nc3cccc(-c4ccc(F)cc4)c32)[nH]1 [Example 10] | 6.74
* Cc1[nH]c(/C=C2\C(=O)Nc3cccc(-c4ccc(Cl)cc4)c32)c(C)c1C(=O)N1CCN(C)CC1 [Example 20] | 6.64
